assay: Volume of distribution at steady state in dog at 0.5 mg/kg, iv
Type: ADME, organism-based, Canis lupus familiaris
cond: in vivo, read-out: Vdss
measured.property: Vd

>  <smiles.string>
Cc1cc(C[C@@H](NC(=O)N2CCC3(CC2)OC(=O)Nc2ncccc23)C(=O)N[C@@H](CC2CCNCC2)C(=O)N2CCN(c3ccncc3)CC2)cc2cn[nH]c12

>  <measured.property>
Vd

>  <endpoint.result>
0.3 L/kg

$$$$

###

assay: Half life in cynomolgus monkey at 0.013 mg/kg, sc
Format: ADME, organism-based, Macaca fascicularis
cond: in vivo

>  <smiles.string>
Cc1cc(C[C@@H](NC(=O)N2CCC3(CC2)OC(=O)Nc2ncccc23)C(=O)N[C@@H](CC2CCNCC2)C(=O)N2CCN(c3ccncc3)CC2)cc2cn[nH]c12

>  <half-life>
210 min

$$$$

###

As shown below, each of these compounds has a reported pKb value.
target: Calcitonin-gene-related peptide receptor, CALCRL/RAMP1 (Homo sapiens, UniProt O60894+Q16602)
assay: Antagonist activity at human CGRP receptor in human SK-N-MC cells assessed as inhibition of CGRP-induced cAMP production preincubated for 30 mins followed by CGRP addition and measured after 30 mins by HTRF assay
Format: functional, cell-based
measured.property: pKb

>  <compound>
Cc1cc(C[C@@H](NC(=O)N2CCC(n3c(=O)[nH]c4ncccc43)CC2)C(=O)N[C@@H](Cc2ccncc2)C(=O)N2CCN(c3ccncc3)CC2)cc2cn[nH]c12

>  <endpoint.result>
10

$$$$
>  <compound>
Cc1cc(C[C@@H](NC(=O)N2CCC(N3Cc4ccccc4NC3=O)CC2)C(=O)N[C@@H](CC2CCNCC2)C(=O)N2CCN(c3ccncc3)CC2)cc2cn[nH]c12

>  <endpoint.result>
10.1

$$$$
>  <compound>
O=C(N[C@@H](CC1CCNCC1)C(=O)N1CCN(c2ccncc2)CC1)[C@@H](Cc1cc(Br)c(O)c(Br)c1)NC(=O)N1CCC(n2c(=O)[nH]c3ncccc32)CC1

>  <endpoint.result>
10.8

$$$$
>  <compound>
Cc1cc(C[C@@H](NC(=O)N2CCC(c3cc4ccccc4[nH]c3=O)CC2)C(=O)N[C@@H](CC2CCNCC2)C(=O)N2CCN(c3ccncc3)CC2)cc2cn[nH]c12

>  <endpoint.result>
9.8

$$$$
>  <compound>
O=C(N[C@@H](CC1CCNCC1)C(=O)N1CCN(c2ccncc2)CC1)[C@@H](Cc1cc(Br)c(O)c(Br)c1)NC(=O)N1CCC(N2Cc3ccccc3NC2=O)CC1

>  <endpoint.result>
11.2

$$$$
>  <compound>
Cc1cc(C[C@@H](NC(=O)N2CCC(n3c(=O)[nH]c4ncccc43)CC2)C(=O)N[C@@H](CCCCN)C(=O)N2CCN(c3ccncc3)CC2)cc2cn[nH]c12

>  <endpoint.result>
11

$$$$
>  <compound>
NCCCC[C@H](NC(=O)[C@@H](Cc1cc(Br)c(O)c(Br)c1)NC(=O)N1CCC(N2Cc3ccccc3NC2=O)CC1)C(=O)N1CCN(c2ccncc2)CC1 [OLCEGEPANT]

>  <endpoint.result>
11.2

$$$$
>  <compound>
Cc1cc(C[C@@H](NC(=O)N2CCC3(CC2)OC(=O)Nc2ncccc23)C(=O)N[C@@H](CC2CCNCC2)C(=O)N2CCN(c3ccncc3)CC2)cc2cn[nH]c12 [HTL-0022562]

>  <endpoint.result>
10.2

$$$$

###

assay: Stability of the compound in pH 3 solution at 50 degC assessed as loss of purity after 1 week
Type: physicochemical
cond: read-out: Drug degradation
measured.property: degraded at 168 h (%)

>  <smiles.string>
Cc1cc(C[C@@H](NC(=O)N2CCC3(CC2)OC(=O)Nc2ncccc23)C(=O)N[C@@H](CC2CCNCC2)C(=O)N2CCN(c3ccncc3)CC2)cc2cn[nH]c12

>  <unit.abbreviation>
%

>  <endpoint.result>
0.4

$$$$

###

assay: Clearance in rat at 2 mg/kg, iv using 100% acidified saline formulation
Assay type: ADME, organism-based
cond: in vivo
measured.property: clearance

>  <smiles.string>
Cc1cc(C[C@@H](NC(=O)N2CCC(n3c(=O)[nH]c4ncccc43)CC2)C(=O)N[C@@H](Cc2ccncc2)C(=O)N2CCN(c3ccncc3)CC2)cc2cn[nH]c12

>  <endpoint.result>
87 mL/min/kg

$$$$

###

target: AHR (aryl hydrocarbon receptor) (Homo sapiens)
Sequence (P35869 whole entry): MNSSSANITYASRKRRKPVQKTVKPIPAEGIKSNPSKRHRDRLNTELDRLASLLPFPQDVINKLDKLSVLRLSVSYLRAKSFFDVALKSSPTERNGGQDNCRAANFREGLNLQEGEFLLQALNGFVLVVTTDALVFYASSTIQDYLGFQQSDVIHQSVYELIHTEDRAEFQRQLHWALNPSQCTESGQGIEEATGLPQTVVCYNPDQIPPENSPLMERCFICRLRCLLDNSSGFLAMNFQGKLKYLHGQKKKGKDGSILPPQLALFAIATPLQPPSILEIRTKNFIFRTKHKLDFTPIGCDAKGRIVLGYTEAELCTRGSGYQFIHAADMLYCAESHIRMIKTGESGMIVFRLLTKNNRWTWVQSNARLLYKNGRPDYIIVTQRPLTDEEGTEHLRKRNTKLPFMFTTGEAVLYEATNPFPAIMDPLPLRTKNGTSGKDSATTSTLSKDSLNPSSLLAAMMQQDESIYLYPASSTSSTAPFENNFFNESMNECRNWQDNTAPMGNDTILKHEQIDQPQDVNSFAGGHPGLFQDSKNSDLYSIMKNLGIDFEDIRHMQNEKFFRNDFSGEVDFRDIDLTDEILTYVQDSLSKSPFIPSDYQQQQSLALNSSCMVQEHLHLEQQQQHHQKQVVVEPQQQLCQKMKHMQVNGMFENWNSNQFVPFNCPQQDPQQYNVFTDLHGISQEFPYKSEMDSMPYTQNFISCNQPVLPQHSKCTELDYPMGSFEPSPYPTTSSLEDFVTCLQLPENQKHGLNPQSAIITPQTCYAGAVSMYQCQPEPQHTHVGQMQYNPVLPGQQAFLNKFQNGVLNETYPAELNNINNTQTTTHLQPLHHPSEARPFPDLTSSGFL
assay: Transactivation of AHR (unknown origin) assessed as induction of CYP450 at 3 uM relative to control
Assay type: ADME
cond: read-out: FC
measured.property: fold induction at 3 µM

>  <smiles.string>
Cc1cc(C[C@@H](NC(=O)N2CCC3(CC2)OC(=O)Nc2ncccc23)C(=O)N[C@@H](CC2CCNCC2)C(=O)N2CCN(c3ccncc3)CC2)cc2cn[nH]c12

>  <endpoint.result>
1.4

$$$$

###

assay: Thermodynamic solubility of the compound at pH 6
Assay type: physicochemical
cond: buffer, read-out: Therm_solubility
Reported solubility thermodynamic values are given for each entry in this list.

>  <smiles.string>
Cc1cc(C[C@@H](NC(=O)N2CCC3(CC2)OC(=O)Nc2ncccc23)C(=O)N[C@@H](CC2CCNCC2)C(=O)N2CCN(c3ccncc3)CC2)cc2cn[nH]c12

>  <solubility thermodynamic>
2920 µM

$$$$
>  <smiles.string>
Cc1cc(C[C@@H](NC(=O)N2CCC(c3cc4ccccc4[nH]c3=O)CC2)C(=O)N[C@@H](CC2CCNCC2)C(=O)N2CCN(c3ccncc3)CC2)cc2cn[nH]c12

>  <solubility thermodynamic>
10 µM

$$$$
>  <smiles.string>
Cc1cc(C[C@@H](NC(=O)N2CCC(n3c(=O)[nH]c4ncccc43)CC2)C(=O)N[C@@H](Cc2ccncc2)C(=O)N2CCN(c3ccncc3)CC2)cc2cn[nH]c12

>  <solubility thermodynamic>
1770 µM

$$$$

###

assay: Lipophilicity, log D of the compound at pH 7.4
Type: physicochemical
cond: buffer

>  <smiles.string>
Cc1cc(C[C@@H](NC(=O)N2CCC3(CC2)OC(=O)Nc2ncccc23)C(=O)N[C@@H](CC2CCNCC2)C(=O)N2CCN(c3ccncc3)CC2)cc2cn[nH]c12

>  <logD>
-0.4

$$$$

###

assay: Thermodynamic solubility of the compound at pH 7.4
Assay type: physicochemical
cond: buffer, read-out: Therm_solubility
# solubility thermodynamic per entry

>  <smiles.string>
Cc1cc(C[C@@H](NC(=O)N2CCC(n3c(=O)[nH]c4ncccc43)CC2)C(=O)N[C@@H](Cc2ccncc2)C(=O)N2CCN(c3ccncc3)CC2)cc2cn[nH]c12

>  <solubility thermodynamic / µM>
230

$$$$
>  <smiles.string>
Cc1cc(C[C@@H](NC(=O)N2CCC3(CC2)OC(=O)Nc2ncccc23)C(=O)N[C@@H](CC2CCNCC2)C(=O)N2CCN(c3ccncc3)CC2)cc2cn[nH]c12

>  <solubility thermodynamic / µM>
2460

$$$$

###

target: Cytochrome P450 2C8 (Homo sapiens)
Sequence (P10632 whole entry): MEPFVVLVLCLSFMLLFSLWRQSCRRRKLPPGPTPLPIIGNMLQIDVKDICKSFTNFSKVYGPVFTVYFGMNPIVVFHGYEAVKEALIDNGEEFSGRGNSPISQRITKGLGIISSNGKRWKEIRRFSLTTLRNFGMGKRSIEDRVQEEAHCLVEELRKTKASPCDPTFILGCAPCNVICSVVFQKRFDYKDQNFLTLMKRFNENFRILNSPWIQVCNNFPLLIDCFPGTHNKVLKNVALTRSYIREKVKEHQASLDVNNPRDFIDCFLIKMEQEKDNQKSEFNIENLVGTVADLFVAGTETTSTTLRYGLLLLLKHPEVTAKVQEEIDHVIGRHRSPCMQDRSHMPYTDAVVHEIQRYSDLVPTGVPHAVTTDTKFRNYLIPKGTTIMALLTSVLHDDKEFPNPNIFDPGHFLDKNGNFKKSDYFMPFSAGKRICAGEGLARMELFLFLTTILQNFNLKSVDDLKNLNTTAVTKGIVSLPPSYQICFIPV
pIC50: −log10 of the molar value.
measured.property: pIC50

>  <compound>
Cc1cc(C[C@@H](NC(=O)N2CCC3(CC2)OC(=O)Nc2ncccc23)C(=O)N[C@@H](CC2CCNCC2)C(=O)N2CCN(c3ccncc3)CC2)cc2cn[nH]c12 [HTL-0022562]

>  <target>
Cytochrome P450 2C8 (Homo sapiens)

>  <measured.property>
pIC50

>  <endpoint.result>
< 4.30

$$$$

###

assay: AUC (infinity) in cynomolgus monkey at 0.5 mg/kg, sc
Assay type: ADME, organism-based, Macaca fascicularis
Set-up: dose 0.5 mg/kg, route subcutaneous, time infinity
cond: in vivo

>  <compound>
Cc1cc(C[C@@H](NC(=O)N2CCC3(CC2)OC(=O)Nc2ncccc23)C(=O)N[C@@H](CC2CCNCC2)C(=O)N2CCN(c3ccncc3)CC2)cc2cn[nH]c12 [HTL-0022562]

>  <AUC(0-inf)>
4210 ng·h/mL

$$$$

###

assay: Efflux ratio of apparent permeability in MDCK cells
Assay type: ADME, cell-based, Canis lupus familiaris
cond: dog
measured.property: efflux ratio

>  <smiles.string>
Cc1cc(C[C@@H](NC(=O)N2CCC3(CC2)OC(=O)Nc2ncccc23)C(=O)N[C@@H](CC2CCNCC2)C(=O)N2CCN(c3ccncc3)CC2)cc2cn[nH]c12

>  <measured.property>
efflux ratio

>  <endpoint.result>
> 2.7

$$$$

###

target: Mas-related G-protein coupled receptor member X2 (Homo sapiens)
Sequence (Q96LB1 whole entry): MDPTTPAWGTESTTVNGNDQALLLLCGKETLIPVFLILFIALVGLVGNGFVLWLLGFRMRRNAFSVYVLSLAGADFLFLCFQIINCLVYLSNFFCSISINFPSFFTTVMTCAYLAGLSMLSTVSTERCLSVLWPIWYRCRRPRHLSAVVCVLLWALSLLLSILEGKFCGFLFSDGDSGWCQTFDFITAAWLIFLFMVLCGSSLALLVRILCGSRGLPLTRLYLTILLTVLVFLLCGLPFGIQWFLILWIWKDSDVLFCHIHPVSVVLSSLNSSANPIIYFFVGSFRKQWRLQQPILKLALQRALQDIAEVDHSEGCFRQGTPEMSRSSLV
assay: Agonist activity at MRGPX2 (unknown origin)
pEC50: −log10 of the molar value.
measured.property: pEC50

>  <smiles.string>
Cc1cc(C[C@@H](NC(=O)N2CCC3(CC2)OC(=O)Nc2ncccc23)C(=O)N[C@@H](CC2CCNCC2)C(=O)N2CCN(c3ccncc3)CC2)cc2cn[nH]c12

>  <endpoint.result>
6.05

$$$$

###

assay: Solubility of the compound at pH 8.2 using amorphous form of sample
Assay type: physicochemical
cond: buffer

>  <smiles.string>
Cc1cc(C[C@@H](NC(=O)N2CCC3(CC2)OC(=O)Nc2ncccc23)C(=O)N[C@@H](CC2CCNCC2)C(=O)N2CCN(c3ccncc3)CC2)cc2cn[nH]c12

>  <solubility>
9000 µg/mL

$$$$
